Every entry's value here was drawn from patent US20250090699A1.

biological target: UniProt P97321
Sequence (P97321 26-761): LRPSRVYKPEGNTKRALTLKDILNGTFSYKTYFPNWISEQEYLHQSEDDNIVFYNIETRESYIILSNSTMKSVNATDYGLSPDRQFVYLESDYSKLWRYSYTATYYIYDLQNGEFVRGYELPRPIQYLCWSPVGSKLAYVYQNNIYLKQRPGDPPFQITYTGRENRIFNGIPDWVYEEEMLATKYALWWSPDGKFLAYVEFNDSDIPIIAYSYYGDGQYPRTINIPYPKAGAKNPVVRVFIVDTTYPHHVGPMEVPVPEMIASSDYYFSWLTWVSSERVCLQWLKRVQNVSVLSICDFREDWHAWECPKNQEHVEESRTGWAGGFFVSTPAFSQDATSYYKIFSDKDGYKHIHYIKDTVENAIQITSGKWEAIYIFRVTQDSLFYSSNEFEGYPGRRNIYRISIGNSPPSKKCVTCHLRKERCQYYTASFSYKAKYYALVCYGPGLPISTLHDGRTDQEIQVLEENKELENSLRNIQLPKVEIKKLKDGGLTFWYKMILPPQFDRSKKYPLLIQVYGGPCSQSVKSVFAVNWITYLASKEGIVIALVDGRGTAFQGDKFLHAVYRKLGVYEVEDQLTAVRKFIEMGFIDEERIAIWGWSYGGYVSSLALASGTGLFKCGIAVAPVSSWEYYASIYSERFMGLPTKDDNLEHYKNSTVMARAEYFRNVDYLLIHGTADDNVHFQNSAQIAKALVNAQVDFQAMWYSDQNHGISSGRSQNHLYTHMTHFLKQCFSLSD
Starred links: 1 amine or outer side, 2 acyl side, 3 side chain; linkers in the order of their positions; H or OH if unused. Non-standard residues stand in square brackets, D forms with d. Residues, ends and D or L forms follow the SMILES beside them. Groups on a side chain read outwards from the residue. *: point of attachment. DOTA = O=C(O)CN1CCN(CC(=O)O)CCN(CC(=O)*)CCN(CC(=O)O)CC1; Nicotinoyl(6-NMe3+) = C[N+](C)(C)c1ccc(C(=O)*)cn1; Phe(4-CH2NH2) = NCc1ccc(C[C@H](N)C(=O)O)cc1; Piperazinyl(4-CH2COOH) = O=C(O)CN1CCN(*)CC1; X7 = CCCCC[C@@H](O)[C@H](N[*:1])C(=O)[*:2]; NMeY = CN[C@@H](Cc1ccc(O)cc1)C(=O)O; Nicotinoyl(6-F) = O=C(c1ccc(F)nc1)*; NMeF = CN[C@@H](Cc1ccccc1)C(=O)O; Aoc(2) = CCCCCC[C@H](N)C(=O)O; Ahp(2) = CCCCC[C@H](N)C(=O)O; hSer = N[C@@H](CCO)C(=O)O; dNMeA = CN[C@H](C)C(=O)O; AEEA = NCCOCCOCC(=O)O; CO = O=C([*:1])[*:2]; Sar = CNCC(=O)O; Propyl = CCC*
Param label: returns Fulfilled when IC50 < 3 nM, returns Not fulfilled otherwise, including exact equality.

Molecule	Assay system	Group
CCCOCC[C@@H]1NC(=O)[C@H](Cc2ccc(CNC(=O)COCCOCCNC(=O)c3ccc([N+](C)(C)C)nc3)cc2)NC(=O)[C@H](Cc2ccccc2)N(C)C(=O)CNC(=O)CNC(=O)[C@H]2CCCN2C(=O)[C@H](CC(=O)O)NC(=O)[C@H](CCCCNC(=O)N2CCN(CC(=O)O)CC2)NC(=O)CNC(=O)[C@H](Cc2c[nH]c3ccccc23)NC1=O [Example C58] (cyclo(D[dP]GG[NMeF][Phe(4-CH2NH2)]([AEEA-Nicotinoyl(6-NMe3+)])[hSer](Propyl)WGK([CO-Piperazinyl(4-CH2COOH)])))	UniProt P97321	Fulfilled
CCCCC[C@@H](O)[C@@H]1NC(=O)[C@H](Cc2ccc(O)cc2)NC(=O)[C@H](Cc2ccccc2)N(C)C(=O)CNC(=O)CNC(=O)[C@H]2CCCN2C(=O)[C@H](CC(=O)O)NC(=O)[C@H](Cc2ccc(O)cc2)NC(=O)CNC(=O)[C@H](Cc2c[nH]c3ccccc23)NC1=O [Example A34] (cyclo(D[dP]GG[NMeF]Y[X7]WGY))	UniProt P97321	Fulfilled
CCCCC[C@@H]1NC(=O)[C@H](Cc2ccc(O)cc2)NC(=O)[C@H](Cc2ccccc2)N(C)C(=O)CNC(=O)CNC(=O)[C@H]2CCCN2C(=O)[C@H](CC(=O)O)NC(=O)[C@H](Cc2ccc(O)cc2)NC(=O)[C@@H](C)NC(=O)[C@H](Cc2c[nH]c3ccccc23)NC1=O [Example A64] (cyclo([Ahp(2)]W[dA]YD[dP]GG[NMeF]Y))	UniProt P97321	Not fulfilled
CCCOCC[C@@H]1NC(=O)[C@H](Cc2ccc(CNC(=O)COCCOCCNC(=O)c3ccc(F)nc3)cc2)NC(=O)[C@H](Cc2ccccc2)N(C)C(=O)CNC(=O)CNC(=O)[C@H]2CCCN2C(=O)[C@H](CC(=O)O)NC(=O)[C@H](CCCCNC(=O)N2CCN(CC(=O)O)CC2)NC(=O)CNC(=O)[C@H](Cc2c[nH]c3ccccc23)NC1=O [Example C56] (cyclo(D[dP]GG[NMeF][Phe(4-CH2NH2)]([AEEA-Nicotinoyl(6-F)])[hSer](Propyl)WGK([CO-Piperazinyl(4-CH2COOH)])))	UniProt P97321	Fulfilled
CCCCC[C@@H]1NC(=O)[C@H](Cc2ccc(O)cc2)NC(=O)[C@H](Cc2ccccc2)NC(=O)[C@H](CCC(=O)O)NC(=O)[C@H](CCCCN)NC(=O)[C@H]2CCCN2C(=O)[C@H](CC(=O)O)NC(=O)[C@H](Cc2ccc(O)cc2)NC(=O)CNC(=O)[C@H](Cc2c[nH]c3ccccc23)NC1=O [Example A20] (cyclo([Ahp(2)]WGYD[dP]KEFY))	UniProt P97321	Not fulfilled
CCCCC[C@@H]1NC(=O)[C@H](Cc2ccc(O)cc2)NC(=O)[C@H](Cc2ccccc2)N(C)C(=O)CNC(=O)CNC(=O)CN(C)C(=O)[C@H](CC(=O)O)NC(=O)[C@H](Cc2ccc(O)cc2)NC(=O)CNC(=O)[C@H](Cc2c[nH]c3ccccc23)NC1=O [Example A68] (cyclo([Ahp(2)]WGYD[Sar]GG[NMeF]Y))	UniProt P97321	Not fulfilled
CCCCC[C@@H]1NC(=O)[C@H](Cc2ccc(O)cc2)NC(=O)[C@H](Cc2ccccc2)N(C)C(=O)CNC(=O)CNC(=O)[C@@H](C)N(C)C(=O)[C@H](CC(=O)O)NC(=O)[C@H](Cc2ccc(O)cc2)NC(=O)CNC(=O)[C@H](Cc2c[nH]c3ccccc23)NC1=O [Example A65] (cyclo([Ahp(2)]WGYD[dNMeA]GG[NMeF]Y))	UniProt P97321	Fulfilled
CCCCCC[C@@H]1NC(=O)[C@H](Cc2ccc(CNC(=O)COCCOCCNC(=O)CN3CCN(CC(=O)O)CCN(CC(=O)O)CCN(CC(=O)O)CC3)cc2)NC(=O)[C@H](Cc2ccccc2)N(C)C(=O)CNC(=O)CNC(=O)[C@H]2CCCN2C(=O)[C@H](CC(=O)O)NC(=O)[C@H](CCCCNC(=O)N2CCN(CC(=O)O)CC2)NC(=O)CNC(=O)[C@H](Cc2c[nH]c3ccccc23)NC1=O [Example B1] (cyclo(GG[NMeF][Phe(4-CH2NH2)]([AEEA-DOTA])[Aoc(2)]WGK([CO-Piperazinyl(4-CH2COOH)])D[dP]))	UniProt P97321	Fulfilled
CCCCC[C@@H]1NC(=O)[C@H](Cc2ccc(O)cc2)NC(=O)[C@H](Cc2ccccc2)N(C)C(=O)CNC(=O)CNC(=O)[C@H]2CCCN2C(=O)[C@H](CC(=O)O)NC(=O)[C@H](Cc2ccc(O)cc2)N(C)C(=O)CNC(=O)[C@H](Cc2c[nH]c3ccccc23)NC1=O [Example A50] (cyclo([Ahp(2)]WG[NMeY]D[dP]GG[NMeF]Y))	UniProt P97321	Fulfilled
CCCOCC[C@@H]1NC(=O)[C@H](Cc2ccc(CNC(=O)COCCOCCNC(=O)CN3CCN(CC(=O)O)CCN(CC(=O)O)CCN(CC(=O)O)CC3)cc2)NC(=O)[C@H](Cc2ccccc2)N(C)C(=O)CNC(=O)CNC(=O)[C@H]2CCCN2C(=O)[C@H](CC(=O)O)NC(=O)[C@H](CCCCNC(=O)N2CCN(CC(=O)O)CC2)NC(=O)CNC(=O)[C@H](Cc2c[nH]c3ccccc23)NC1=O [Example B2] (cyclo(D[dP]GG[NMeF][Phe(4-CH2NH2)]([AEEA-DOTA])[hSer](Propyl)WGK([CO-Piperazinyl(4-CH2COOH)])))	UniProt P97321	Fulfilled

###

Molecular target: human FAP (Homo sapiens)
Sequence (Q12884 26-760): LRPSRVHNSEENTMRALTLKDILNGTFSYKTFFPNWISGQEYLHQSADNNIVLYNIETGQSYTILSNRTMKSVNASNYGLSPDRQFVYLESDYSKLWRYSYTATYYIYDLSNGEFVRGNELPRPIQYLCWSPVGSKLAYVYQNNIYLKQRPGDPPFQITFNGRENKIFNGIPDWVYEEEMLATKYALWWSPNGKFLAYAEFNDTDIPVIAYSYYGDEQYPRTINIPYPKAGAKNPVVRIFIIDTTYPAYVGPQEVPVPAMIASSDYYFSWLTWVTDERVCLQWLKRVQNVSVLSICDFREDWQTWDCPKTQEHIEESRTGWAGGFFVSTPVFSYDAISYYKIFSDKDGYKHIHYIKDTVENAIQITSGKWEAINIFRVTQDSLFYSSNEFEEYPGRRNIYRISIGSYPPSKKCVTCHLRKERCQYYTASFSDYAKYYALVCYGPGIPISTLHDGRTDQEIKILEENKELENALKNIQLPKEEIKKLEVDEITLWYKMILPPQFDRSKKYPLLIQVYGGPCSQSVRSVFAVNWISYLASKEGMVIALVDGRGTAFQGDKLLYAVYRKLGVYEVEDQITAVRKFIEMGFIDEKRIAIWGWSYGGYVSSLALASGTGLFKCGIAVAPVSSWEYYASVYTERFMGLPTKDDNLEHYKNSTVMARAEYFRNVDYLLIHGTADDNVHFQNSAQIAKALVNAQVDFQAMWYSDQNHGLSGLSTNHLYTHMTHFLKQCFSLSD
Non-standard residues stand in square brackets, D forms with d. Residues, ends and D or L forms follow the SMILES beside them. NMeF = CN[C@@H](Cc1ccccc1)C(=O)O; Ahp(2) = CCCCC[C@H](N)C(=O)O; dPip = O=C(O)[C@H]1CCCCN1
IC50 listing for selected compounds.
Value kind: IC50

Compound	Assay system	Recorded measurement
CCCCC[C@@H]1NC(=O)[C@H](Cc2ccc(O)cc2)NC(=O)[C@H](Cc2ccccc2)N(C)C(=O)CNC(=O)CNC(=O)[C@H]2CCCCN2C(=O)[C@H](CC(=O)O)NC(=O)[C@H](Cc2ccc(O)cc2)NC(=O)CNC(=O)[C@H](Cc2c[nH]c3ccccc23)NC1=O [Example A66] (cyclo([Ahp(2)]WGYD[dPip]GG[NMeF]Y))	human FAP (Homo sapiens)	0.00027 µM
CCCCC[C@@H]1NC(=O)[C@H](Cc2ccc(O)cc2)NC(=O)[C@H](Cc2ccccc2)N(C)C(=O)CNC(=O)CNC(=O)[C@H]2CCCN2C(=O)[C@H](CCCCNC(C)=O)NC(=O)[C@H](Cc2ccc(O)cc2)NC(=O)CNC(=O)[C@H](Cc2c[nH]c3ccccc23)NC1=O [Example A55] (cyclo([Ahp(2)]WGYK(Ac)[dP]GG[NMeF]Y))	human FAP (Homo sapiens)	0.024 µM
